From: patent US20200157194A1

Listed next: entries and their corresponding Binding Signal with 300 sec Association.
- SYSTEM UNDER TEST: T1, recombinant human GREM1 (hGREM1-His; C-terminal 10His tagged, R&D, #5190-GR) (human, UniProt O60565 25-184)
- T1 construct: range 25-184; also called recombinant human GREM1 with a C-terminal decahistidine tag
- T1 sequence: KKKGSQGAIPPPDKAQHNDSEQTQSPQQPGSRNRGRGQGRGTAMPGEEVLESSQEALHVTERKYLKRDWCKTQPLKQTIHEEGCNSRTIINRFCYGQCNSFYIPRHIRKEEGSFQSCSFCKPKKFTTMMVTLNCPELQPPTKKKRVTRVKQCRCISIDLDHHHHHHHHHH
- EXPERIMENT DESCRIPTION: BLI Octet, mAb captured, 100 nM GREM1 + 5 uM heparin;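 note: octet Red96 biolayer interferometry at 25 °C, antibodies captured on anti-human IgG Fc biosensors, pH 7.4 HEPES buffer with 0.1 mg/mL BSA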
Value expressed in nm; do not type the unit.

Would you please look over these solved cases?
BINDER	Binding Signal with 300 sec Association, nm
H4H6246P (antibody, human IgG4, V domains shown, H4H prefix = human IgG4 Fc) VH: QVQLVESGGGVVQPGRSLRLSCAASGFTFSSYGMHWVRQAPGKGLEWVAIIWYDGSNRYYADSVKGRFTISRDNSRNTLYLQMNSLRAEDTAVYYCARDEYGDYDYPFDYWGQGTLVTVSS VL: DIQMTQSPSSLSASVGDRVTITCRASQGIRNDLGWFQQKPGKAPKRLIYAASSLQSGVPSRFSGSGSGTEFTLTISSLQPEDFATYYCLQHNTYPPFTFGPGTKVDIK	0.34
H4H6248P (antibody, human IgG4, V domains shown, H4H prefix = human IgG4 Fc) VH: QVQLVESGGGVVQPGRSLRLSCAASGFTFSNYGMHWVRQVPGKGLEWVAVIWYDGSNKYYADSVKGRFTISRDNSKNTLYLQMNSVRAEDTAVYYCARDDYGDSPGFDYWGQGTLVTVSS VL: EIVMTQSPATLSVSPGERATLSCRASQSVSSSLAWYQQKPGQAPRLLIYDASTRATGIPARFSGSGSGTEFTLTISGLQSEDFAVYYCQQYNNWPPWTFGQGTKVEIK	0.37

Notebook: H4H2889N (antibody, human IgG4, V domains shown, H4H prefix = human IgG4 Fc) VH: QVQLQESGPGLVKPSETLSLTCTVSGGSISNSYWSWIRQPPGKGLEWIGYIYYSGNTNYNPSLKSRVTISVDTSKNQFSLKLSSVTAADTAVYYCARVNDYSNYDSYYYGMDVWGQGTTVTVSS VL: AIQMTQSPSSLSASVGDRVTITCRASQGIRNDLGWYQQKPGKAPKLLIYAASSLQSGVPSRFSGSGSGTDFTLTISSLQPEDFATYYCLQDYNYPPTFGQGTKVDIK , Binding Signal with 300 sec Association read as 0.44
